- Tested on: MDA-MB-231
- PROTOCOL_TEXT: NCI tumour cell line growth inhibition, 48 h
Active and inactive are the calls of the source. Cut-off read from the data, not from the text of the source: active = GI50 up to about 1.1 µM and inactive = higher.
Just give me one of these, please: true = active, false = inactive

compound=Oc1ccc(C(O)(c2ccccc2)c2ccccc2)c2ccccc12 tested_on=MDA-MB-231 group=false
compound="CCC1C(NC(=O)OC)C(=O)N1[C@@H](C)c1ccccc1 (stereo partly drawn)" tested_on=MDA-MB-231 group=false
compound=O=c1c2ccccc2oc2c1ccc1ncccc12 tested_on=MDA-MB-231 group=false
compound="CC(NC(=O)OC(C)(C)C)C(=O)C(N)=O (stereo not drawn)" tested_on=MDA-MB-231 group=false
compound="O=C1CSC(c2cccc(Cl)c2)N1c1ccc(-n2c(-c3ccccc3)nc3ccccc3c2=O)cc1 (stereo not drawn)" tested_on=MDA-MB-231 group=false
compound="CCOC(=O)Oc1cc2c(c(OC)c1OC)-c1ccc(SC)c(=O)cc1C(NC(=O)C(F)(F)F)CC2 (stereo not drawn)" tested_on=MDA-MB-231 group=true
compound=COC(=O)C(CCCCN)NC(=O)C(CCCCN)NC(C)=O.Cc1ccc(C(=O)Nc2ccc(S(=O)(=O)O)c3cc(S(=O)(=O)O)cc(S(=O)(=O)O)c23)cc1NC(=O)c1cccc(NC(=O)Nc2cccc(C(=O)Nc3cc(C(=O)Nc4ccc(S(=O)(=O)O)c5cc(S(=O)(=O)O)cc(S(=O)(=O)O)c45)ccc3C)c2)c1 tested_on=MDA-MB-231 group=false

Data request: How did this test come out for Cc1ccc([N+](=O)[O-])cc1S(=O)(=O)Nc1ccc(C2=NN(S(=O)(=O)c3cc([N+](=O)[O-])ccc3C)C(c3ccccc3O)C2)cc1 (stereo not drawn) ?
Data returned: false

###

- Tested on: SF-268
- PROTOCOL_TEXT: NCI tumour cell line growth inhibition, 48 h
Calls of active or inactive are those of the source. Rule as the data show it: active = GI50 up to about 1.1 µM and inactive = higher.
// values below are reported GI50

Lookup result for O=C(NC1CCC(=O)N1C(=O)OCc1ccccc1)OCc1ccccc1 (centres undefined) ; measured GI50: > 100 µM (inactive)

Lookup result for O=C(CCC(C(=O)OCc1ccccc1)C(=O)OCc1ccccc1)Nc1ccc(OCc2ccccc2)cc1 ; measured GI50: > 100 µM (inactive)

Lookup result for CC12CP(=O)(O)CC1C2(Cl)Cl (centres undefined) ; measured GI50: > 100 µM (inactive)

Lookup result for OC(C#Cc1ccccc1)(c1ccccc1)c1ccccc1 ; measured GI50: 21.4 µM (inactive)

Lookup result for CCOC(=O)/C1=C(\C)N(Cc2ccccc2)C(=O)c2ccccc2C(=O)c2c(OC(C)=O)ccc(OC(C)=O)c21 ; measured GI50: 43.6 µM (inactive)

Lookup result for C=C1c2nc3ccccc3n2C=C(c2ccc(C)cc2)N1c1ccccc1 ; measured GI50: 12.9 µM (inactive)

###

// values below are reported GI50
- System: OVCAR-3
- PROTOCOL_TEXT: NCI tumour cell line growth inhibition, 48 h
Active and inactive are the calls of the source. Rule as the data show it: active = GI50 up to about 1.1 µM and inactive = higher.

Field: example entries. Status: answers known.
compound=O=S(=O)(c1ccccc1)C1CN(Cc2ccccc2)CCN(Cc2ccccc2)C1 tested_on=OVCAR-3 result="26.6 µM (inactive)"
compound=Cc1ccc2c3c1O[C@H]1c4nc5ccccc5cc4C[C@@]4(O)[C@@H](C2)N(CC2CC2)CC[C@]314 tested_on=OVCAR-3 result="11.6 µM (inactive)"
compound="COc1c(O)c(O)cc2c1-c1ccc(OC)c(=O)cc1C(NC(C)=O)CC2 (stereo not given)" tested_on=OVCAR-3 result="2.21 µM (inactive)"
compound=N/C(=N\c1ccccc1)c1ccccc1N tested_on=OVCAR-3 result="> 100 µM (inactive)"
compound=O=C(Cc1ccccc1)NNc1nc(NNC(=O)c2ccncc2)nc(Nc2ccc([N+](=O)[O-])cc2)n1 tested_on=OVCAR-3 result="> 10 µM (inactive)"
compound=CNS(=O)(=O)c1ccc2c(c1)/C(=C1/Nc3ccccc3C1=O)C(=O)N2 tested_on=OVCAR-3 result="> 100 µM (inactive)"
compound=Cc1c(C(=O)OCc2ccccc2)[n+]([O-])c2ccccc2[n+]1[O-] tested_on=OVCAR-3 result="30.3 µM (inactive)"
compound=CCOc1ccc(/N=N/c2ccc3oc(=O)c(/C(C)=N\NC(=O)CC(=O)Nc4ccc(Cl)cc4)cc3c2)cc1 tested_on=OVCAR-3 result="15.5 µM (inactive)"

Lookup result for Nc1nc[n+](Cc2ccccc2)c2ncn(Cc3ccccc3)c12 ; measured GI50: 38.6 µM (inactive)

Lookup result for Cc1cc2c(cc1Cl)SC(NNC(=O)c1ccccc1)=NS2(=O)=O ; measured GI50: > 10 µM (inactive)

###

- Tested on: Hs-578T
- PROTOCOL_TEXT: NCI tumour cell line growth inhibition, 48 h
The source made the active and inactive calls. Cut-off read from the data, not from the text of the source: active = GI50 up to about 1.1 µM and inactive = higher.
Just give me one of these, please: active, inactive

Data request: How did this test come out for Cc1ccc2c3c1O[C@H]1c4nc5ccccc5cc4C[C@@]4(O)[C@@H](C2)N(CC2CC2)CC[C@]314 ?
Data returned: inactive

Data request: How did this test come out for Cc1cc2c(cc1Cl)SC(NNC(=O)c1ccccc1)=NS2(=O)=O ?
Data returned: inactive

Data request: How did this test come out for O=C(CCC(C(=O)OCc1ccccc1)C(=O)OCc1ccccc1)Nc1ccc(OCc2ccccc2)cc1 ?
Data returned: inactive

Data request: How did this test come out for CC(=O)O[C@@H]1[C@H](C(C)C)[C@@H](OC(C)=O)C/C(C)=C/CC[C@]2(C)O[C@@H]12 ?
Data returned: inactive

Data request: How did this test come out for CN(C)/C=N/CCN1CCOCC1 ?
Data returned: inactive

Data request: How did this test come out for CCNCC(=O)O[C@]1(CC)C(=O)OCc2c1cc1n(c2=O)Cc2cc3ccccc3nc2-1 ?
Data returned: inactive

Data request: How did this test come out for COc1cc(/C=N/n2c(Cc3ccc(Cl)cc3)n[nH]c2=O)cc(OC)c1OC ?
Data returned: inactive

Data request: How did this test come out for O=c1c2cc([N+](=O)[O-])cnc2sn1-c1ccc(Oc2ccccc2)cc1 ?
Data returned: inactive

Data request: How did this test come out for COc1ccc(NC(=O)CC(=O)n2nc(-c3ccccc3)c(/N=N/c3ccc(C)cc3)c2-c2ccccc2)cc1 ?
Data returned: inactive

Data request: How did this test come out for Clc1cc(Cl)cc(/N=C/C=C/Nc2cc(Cl)cc(Cl)c2)c1 ?
Data returned: inactive

Data request: How did this test come out for CCCCCCCCCCCCCC1=C(O)C(=O)C(CC2=C(O)C(=O)C(CCCCCCCCCCCCC)=C(O)C2=O)=C(O)C1=O ?
Data returned: inactive

Data request: How did this test come out for O=C(/C=C/c1ccc([N+](=O)[O-])cc1)c1nc2ccccc2[nH]1 ?
Data returned: inactive

Data request: How did this test come out for COc1ccc(N2C(=O)C3c4[nH]c5ccccc5c4C4CCCCCCCCCC4C3C2=O)cc1 (centres undefined) ?
Data returned: inactive

Data request: How did this test come out for O=C1C=CC=C/C1=C1\N=C(c2ccccc2OCC(=O)c2ccc(Br)cc2)SS1 ?
Data returned: inactive

Data request: How did this test come out for N#Cc1c(Cl)cccc1Oc1ccc(S(=O)(=O)N/C(=N\O)Nc2ccc(Cl)cc2)cc1 ?
Data returned: inactive

Data request: How did this test come out for O=C1N(Cc2ccccc2)C2CSCC2N1Cc1ccccc1 (centres undefined) ?
Data returned: inactive

Data request: How did this test come out for OC1(c2ccc3ccccc3c2)c2ccc3ccccc3c2C2=NCCN21 (centres undefined) ?
Data returned: inactive

Data request: How did this test come out for COc1cc2c(cc1OC)C1Cc3ccccc3CCN1CC2 (centres undefined) ?
Data returned: inactive

Data request: How did this test come out for O=C(COc1cc(=O)oc2ccccc12)c1ccccc1 ?
Data returned: inactive

Data request: How did this test come out for CCCCCCCCCCCCCCCCCCOCC(CO[PH](=O)O)OCCCCCCCCCCCCCCCCCC (centres undefined) ?
Data returned: inactive

Data request: How did this test come out for NC1=CN2c3ccccc3N(CC(=O)O)C2C=C1 (centres undefined) ?
Data returned: inactive

Data request: How did this test come out for Cc1ccc(N)cc1.O=S(=O)(O)/C(=C\c1ccccc1)c1ccccc1 ?
Data returned: inactive

Data request: How did this test come out for CCCCC/C=C1\CC(CO)(COC(=O)CC(C(C)C)C(C)C)OC1=O (centres undefined) ?
Data returned: inactive

Data request: How did this test come out for C=CCOc1ccc(C(/N=N\c2ccc(Cl)cc2)=N/NC(=O)c2ccccc2)cc1OC ?
Data returned: inactive

###

- Tested on: HCC 2998
- PROTOCOL_TEXT: NCI tumour cell line growth inhibition, 48 h
The source made the active and inactive calls. Cut-off read from the data, not from the text of the source: active = GI50 up to about 1.1 µM and inactive = higher.
REPORTED_ENDPOINT: GI50

molecule=COC(=O)NC(Nc1ccc(Cl)cc1Cl)(C(F)(F)F)C(F)(F)F reported_endpoint=GI50 result="45.7 µM (inactive)"
molecule=C/C1=N\[N-]C(=O)c2ccccc2C(=O)N/N=C(\C)c2cccc1n2.O=[N+]([O-])[O-].[Zn+2] reported_endpoint=GI50 result="> 100 µM (inactive)"
molecule="CCCN(CCCC(NC(C)=O)C(=O)NCc1ccccc1)C(=O)NCCCl (stereo not given)" reported_endpoint=GI50 result="> 100 µM (inactive)"

The value of GI50 recorded for CSc1nc(C)c2c(n1)N(c1ccc(Cl)cc1)CC2 when tested on HCC 2998 reads > 100 µM (inactive)

The value of GI50 recorded for O=C1/C(=C/c2ccc3c(c2)CCC3)Cc2cc3c(cc21)CCC3 when tested on HCC 2998 reads > 100 µM (inactive)
